# Target of assay: UniProt P11597
# Sequence (P11597 18-493): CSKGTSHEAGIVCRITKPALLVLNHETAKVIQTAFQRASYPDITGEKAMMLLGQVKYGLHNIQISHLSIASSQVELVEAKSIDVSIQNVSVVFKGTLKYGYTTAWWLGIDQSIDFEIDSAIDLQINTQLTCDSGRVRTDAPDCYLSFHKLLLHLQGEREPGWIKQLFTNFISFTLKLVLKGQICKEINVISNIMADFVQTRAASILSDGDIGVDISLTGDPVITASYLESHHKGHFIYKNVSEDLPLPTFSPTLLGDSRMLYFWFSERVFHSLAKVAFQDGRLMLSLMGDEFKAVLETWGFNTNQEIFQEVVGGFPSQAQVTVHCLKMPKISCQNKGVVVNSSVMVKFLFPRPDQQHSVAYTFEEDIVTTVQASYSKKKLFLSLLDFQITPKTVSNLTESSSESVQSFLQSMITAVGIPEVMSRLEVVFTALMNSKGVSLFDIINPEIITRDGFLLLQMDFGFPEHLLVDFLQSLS
# Procedure details: Ex vivo CETP activity inhibitory effect of plasma from transgenic mice
# Design: from tissue; host or cells: plasma of transgenic mice carrying the human CETP gene
# Measurement parameters: mouse, po; 100 mg/kg, p.o.; 6 hours after administration; transgenic mice with human CETP gene; read-out: CETP activity inhibitory rate in plasma from transgenic mouse
Catalogue of inhibition at 100 mg/kg readings, one per entry.
Only the number, expressed in %, is required.

{"columns": ["Molecule smiles", "inhibition at 100 mg/kg / %"],
 "data": [
  ["CC(C)CCC1(C(=O)Nc2ccccc2S)CCCCC1", 57]
]}

Now examine the next entry.
Short answer for `CC(C)CCC1(C(=O)Nc2ccccc2SC(=O)C(C)C)CCCCC1` : inhibition at 100 mg/kg was 64
